B1: SAM and SH3 domain-containing protein 1, residues 630 to 700; numbered along this chain, O94885 (parent)
chain: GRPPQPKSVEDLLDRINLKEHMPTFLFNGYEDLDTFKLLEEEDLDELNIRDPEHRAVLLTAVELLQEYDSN

# Variants of: B1
# test_summary: abundance fitness (aPCA) (normalised: wild type 0, dead -1); higher = more abundant; growth selection in yeast, the domain comes from the species named
# measurement_conditions: Homo sapiens
measurement_kind: abundance fitness
Give the figure by itself; no unit, no explanation.

Problem: Determine its reported abundance fitness: "F25I"
Solution: -0.687

Problem: Determine its reported abundance fitness: "R50Q"
Solution: 0.039

Problem: Determine its reported abundance fitness: "E41W"
Solution: -0.567

Problem: Determine its reported abundance fitness: "N48A"
Solution: -0.343

Problem: Determine its reported abundance fitness: "P52T"
Solution: -0.437

Problem: Determine its reported abundance fitness: "D69T"
Solution: -0.358

Problem: Determine its reported abundance fitness: "V62H"
Solution: -0.596

Problem: Determine its reported abundance fitness: "L33S"
Solution: -0.812

Problem: Determine its reported abundance fitness: "E63H"
Solution: -0.075

Problem: Determine its reported abundance fitness: "I16W"
Solution: -0.611

Problem: Determine its reported abundance fitness: "A61D"
Solution: -0.787

Problem: Determine its reported abundance fitness: "N28T"
Solution: -0.831

Problem: Determine its reported abundance fitness: "N28A"
Solution: -0.006

Problem: Determine its reported abundance fitness: "K7T"
Solution: 0.095

Problem: Determine its reported abundance fitness: "G29T"
Solution: -0.917

Problem: Determine its reported abundance fitness: "A61T"
Solution: -0.479

Problem: Determine its reported abundance fitness: "Y68T"
Solution: 0.031

Problem: Determine its reported abundance fitness: "E53I"
Solution: -0.542

Problem: Determine its reported abundance fitness: "L47W"
Solution: -0.959

Problem: Determine its reported abundance fitness: "E53L"
Solution: -0.486

Problem: Determine its reported abundance fitness: "T24M"
Solution: -0.379

Problem: Determine its reported abundance fitness: "R50S"
Solution: -0.06

Problem: Determine its reported abundance fitness: "H54N"
Solution: -0.635

Problem: Determine its reported abundance fitness: "I16C"
Solution: -0.067

Problem: Determine its reported abundance fitness: "E63G"
Solution: -0.15

Problem: Determine its reported abundance fitness: "P4Y"
Solution: 0.067

Problem: Determine its reported abundance fitness: "P6H"
Solution: -0.607

Problem: Determine its reported abundance fitness: "L44S"
Solution: -0.875

Problem: Determine its reported abundance fitness: "L58C"
Solution: -0.82

Problem: Determine its reported abundance fitness: "D11R"
Solution: -0.926

Problem: Determine its reported abundance fitness: "P3Q"
Solution: -0.118

Problem: Determine its reported abundance fitness: "D43L"
Solution: -0.894

Problem: Determine its reported abundance fitness: "I16K"
Solution: -0.735

Problem: Determine its reported abundance fitness: "Q5A"
Solution: -0.291

Problem: Determine its reported abundance fitness: "P4H"
Solution: -0.01

Problem: Determine its reported abundance fitness: "T35V"
Solution: -0.492

Problem: Determine its reported abundance fitness: "T60M"
Solution: -0.385

Problem: Determine its reported abundance fitness: "L47F"
Solution: -0.828

Problem: Determine its reported abundance fitness: "E53R"
Solution: -0.266

Problem: Determine its reported abundance fitness: "G1C"
Solution: -0.067

Problem: Determine its reported abundance fitness: "K19E"
Solution: -0.434

Problem: Determine its reported abundance fitness: "H54M"
Solution: -0.501

Problem: Determine its reported abundance fitness: "Q5L"
Solution: -0.345

Problem: Determine its reported abundance fitness: "P3H"
Solution: -0.094

Problem: Determine its reported abundance fitness: "E67V"
Solution: -0.232

Problem: Determine its reported abundance fitness: "L47I"
Solution: -0.671

Problem: Determine its reported abundance fitness: "G29H"
Solution: -0.831

Problem: Determine its reported abundance fitness: "L33A"
Solution: -0.883

Problem: Determine its reported abundance fitness: "E20Y"
Solution: -0.84

Problem: Determine its reported abundance fitness: "D69I"
Solution: -0.836

Problem: Determine its reported abundance fitness: "D32A"
Solution: -0.579

Problem: Determine its reported abundance fitness: "P23A"
Solution: 0.113

Problem: Determine its reported abundance fitness: "L12E"
Solution: -0.768

Problem: Determine its reported abundance fitness: "P52Q"
Solution: -0.424

Problem: Determine its reported abundance fitness: "L44A"
Solution: -0.779

Problem: Determine its reported abundance fitness: "A61W"
Solution: -0.287

Problem: Determine its reported abundance fitness: "F36E"
Solution: -0.678

Problem: Determine its reported abundance fitness: "E20N"
Solution: -0.455

Problem: Determine its reported abundance fitness: "K37C"
Solution: -0.449

Problem: Determine its reported abundance fitness: "Q66G"
Solution: -0.197

Problem: Determine its reported abundance fitness: "R15M"
Solution: 0.142

Problem: Determine its reported abundance fitness: "R15V"
Solution: -0.381

Problem: Determine its reported abundance fitness: "P4E"
Solution: 0.237

Problem: Determine its reported abundance fitness: "N17K"
Solution: -0.341

Problem: Determine its reported abundance fitness: "N28H"
Solution: 0.109

Problem: Determine its reported abundance fitness: "G1I"
Solution: 0.047

Problem: Determine its reported abundance fitness: "K19Q"
Solution: 0.002

Problem: Determine its reported abundance fitness: "D51W"
Solution: -0.862

Problem: Determine its reported abundance fitness: "D14K"
Solution: -0.273

Problem: Determine its reported abundance fitness: "G1T"
Solution: 0.016

Problem: Determine its reported abundance fitness: "Y68M"
Solution: 0.025

Problem: Determine its reported abundance fitness: "P23F"
Solution: -0.434

Problem: Determine its reported abundance fitness: "D45K"
Solution: -0.135

Problem: Determine its reported abundance fitness: "N71K"
Solution: 0.007

Problem: Determine its reported abundance fitness: "I49T"
Solution: -0.863

Problem: Determine its reported abundance fitness: "I49H"
Solution: -0.784

Entry source: the Human Domainome abundance scans (Beltran et al. 2025)
